Entry source: patent US20210130436A1

# reported MFI at 100 nM; entries follow
# Experimental system: T1, CD96 (UniProt P40200 22-585, limits assumed)
# T1 construct: whole, on cells
# T1 sequence (looked up): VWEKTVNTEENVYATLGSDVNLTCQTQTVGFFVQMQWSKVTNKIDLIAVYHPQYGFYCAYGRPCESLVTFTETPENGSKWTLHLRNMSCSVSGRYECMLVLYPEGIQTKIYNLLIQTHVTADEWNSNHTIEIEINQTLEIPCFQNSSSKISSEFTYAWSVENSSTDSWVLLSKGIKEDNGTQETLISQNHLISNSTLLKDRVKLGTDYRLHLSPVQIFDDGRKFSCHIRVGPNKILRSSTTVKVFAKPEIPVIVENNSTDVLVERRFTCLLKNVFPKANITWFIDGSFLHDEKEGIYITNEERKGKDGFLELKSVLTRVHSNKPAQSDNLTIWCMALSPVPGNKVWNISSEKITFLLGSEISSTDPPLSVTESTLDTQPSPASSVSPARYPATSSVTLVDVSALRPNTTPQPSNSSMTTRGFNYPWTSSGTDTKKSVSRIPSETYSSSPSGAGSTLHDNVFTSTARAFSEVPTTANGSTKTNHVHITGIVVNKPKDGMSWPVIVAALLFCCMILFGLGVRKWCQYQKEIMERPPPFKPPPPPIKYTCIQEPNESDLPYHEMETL
# Assay: flow cytometry, Fc fusion at 100 nM, CD96-transfected cells
Expressed in MFI, but write only the number.

# annotated cases, reported MFI at 100 nM shown
Binder: variant CD155 IgV-Fc S42A/S52Q/L104Q/G111R (Fc fusion, not shown: a dimerising Fc or GST) WPPPGTGDVVVQAPTQVPGFLGDSVTLPCYLQVPNMEVTHVAQLTWARHGEQGSMAVFHQTQGPSYSESKRLEFVAARLGAELRNASLRMFGLRVEDEGNYTCQFVTFPQRSRSVDIWLRVL
U: MFI
Endpoint value: 1640

Binder: variant CD155 IgV-Fc L104E (Fc fusion, not shown: a dimerising Fc or GST) WPPPGTGDVVVQAPTQVPGFLGDSVTLPCYLQVPNMEVTHVSQLTWARHGESGSMAVFHQTQGPSYSESKRLEFVAARLGAELRNASLRMFGLRVEDEGNYTCEFVTFPQGSRSVDIWLRVL
U: MFI
Endpoint value: 1560

## Task If you can, please state the reported MFI at 100 nM value of variant CD155 IgV-Fc S42W/S52R/Q62Y/L104Q (Fc fusion, not shown: a dimerising Fc or GST) WPPPGTGDVVVQAPTQVPGFLGDSVTLPCYLQVPNMEVTHVWQLTWARHGERGSMAVFHQTYGPSYSESKRLEFVAARLGAELRNASLRMFGLRVEDEGNYTCQFVTFPQGSRSVDIWLRVL .
## Result 1760

## Task # lookup: MFI at 100 nM of variant CD155 IgV-Fc S42W/S52Q/V57L/Q62Y (Fc fusion, not shown: a dimerising Fc or GST) WPPPGTGDVVVQAPTQVPGFLGDSVTLPCYLQVPNMEVTHVWQLTWARHGEQGSMALFHQTYGPSYSESKRLEFVAARLGAELRNASLRMFGLRVEDEGNYTCLFVTFPQGSRSVDIWLRVL
## Result 1700
